# assay-text: NCI Yeast Anticancer Drug Screen. Data for the bub3 strain (AID 167)
# experimental-setup: S. cerevisiae bub3 mutant strain, at 50.0 µM, active compounds read high
This is part of a sample that, as a whole, favours compounds with a hit. Of some 79,000 tested, about 15% had one in any assay.
# growth inhibition annotations
observable: growth inhibition (%)

compound="c1ccc2c3c(ccc2c1)NC1CCCN1C3 (stereo not drawn)" observable="growth inhibition" unit_label=% meas_value=-8.6
compound="CC12CCC(OC3OC(CO)C(O)C(O)C3O)C=C1CCC1C2CCC2(C)C(c3ccc(=O)oc3)CCC12 (stereo not drawn)" observable="growth inhibition" unit_label=% meas_value=61.2
compound="CC(C)CC(C)OC(=O)Cc1ccccc1 (stereo not drawn)" observable="growth inhibition" unit_label=% meas_value=7.8
compound=Clc1cc2nncc(N3CC3)c2cc1Cl observable="growth inhibition" unit_label=% meas_value=-7.8
compound=C/C=C/CC1(CC)C(=O)NC(=S)NC1=O observable="growth inhibition" unit_label=% meas_value=2.35
compound="OC(c1ccccc1)C(c1ccccc1)N1CCOCC1 (stereo not drawn)" observable="growth inhibition" unit_label=% meas_value=7.9
compound=ClCCCN1CCN(CCCl)CC1 observable="growth inhibition" unit_label=% meas_value=-13.8
compound=CCCCOCCOP(=O)(OCCOCCCC)OCCOCCCC observable="growth inhibition" unit_label=% meas_value=-39
compound=CN(C)C1CCNCC1 observable="growth inhibition" unit_label=% meas_value=4.6
compound="CC(C)(C)N1COC2CCCCC21 (stereo not drawn)" observable="growth inhibition" unit_label=% meas_value=16.4
compound=OCCN1CCN(c2cccc(Cl)c2)CC1 observable="growth inhibition" unit_label=% meas_value=-8.05
compound="COC1=CC2CCC3C(CCC4(C)C(OC(C)=O)CCC34)C2(C)CC1 (stereo not drawn)" observable="growth inhibition" unit_label=% meas_value=-13.3
compound="Nc1cc(S(=O)(=O)O)cc2cc(S(=O)(=O)O)c(N=Nc3ccc([As]=O)cc3)c(O)c12 (stereo not drawn)" observable="growth inhibition" unit_label=% meas_value=6.05
